Measured values drawn from paper PMC3903617 for this set.

Biological target: T1, monocyte chemo-attractant protein-1 (MCP-1) (Homo sapiens (Human)., UniProt P13500)
T1 construct: MCP-1 (monocyte chemo-attractant protein-1), chemokine; synthetic gene optimised for E. coli in pET26b; Probably the mature human chemokine, as in PDB 2BDN; also called monocyte chemotactic protein-1; antigen; source: E. coli Rosetta2 (DE3), purified (Ni-NTA, SEC)
Assay: SPR; Biacore T200; MCP-1 immobilised on a CM5 chip by amine coupling (~220 RU), scFv injected at 30 µl/min; PBS with 0.005% Tween-20; 25°C; global fit, 1:1 Langmuir model; KD from koff/kon
Settings: both partners purified
measured-attribute: kon (M⁻¹ s⁻¹)
One number for each entry, in M⁻¹ s⁻¹.

# annotated cases, reported kon shown
# kon (binder: 11K2 scFv mutein L-Y30K (scFv, V domains shown, PDB 2BDN heavy chain; PDB 2BDN light chain) with the stated change) VH: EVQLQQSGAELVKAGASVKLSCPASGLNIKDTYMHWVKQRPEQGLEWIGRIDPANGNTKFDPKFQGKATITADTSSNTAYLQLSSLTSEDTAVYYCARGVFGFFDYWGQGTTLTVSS VL: DIQMTQSSSSFSVSLGDRVTITCKATEDIKNRLAWYQQKPGSAPRLLISGATSLETGVPSRFSGSGSGKDYTLSITSLQTEDVATYYCQQFWSAPYTFGGGTKLEIK ) is 130000

The recorded kon for 11K2 scFv mutein L-T56D (scFv, V domains shown, PDB 2BDN heavy chain; PDB 2BDN light chain) with the stated change) VH: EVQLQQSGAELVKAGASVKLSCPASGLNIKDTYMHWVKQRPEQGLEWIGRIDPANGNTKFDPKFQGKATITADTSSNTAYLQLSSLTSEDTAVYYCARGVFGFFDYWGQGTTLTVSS VL: DIQMTQSSSSFSVSLGDRVTITCKATEDIYNRLAWYQQKPGSAPRLLISGATSLEDGVPSRFSGSGSGKDYTLSITSLQTEDVATYYCQQFWSAPYTFGGGTKLEIK is 220000

Next up:
Form: binder = 11K2 scFv mutein L-S53D (scFv, V domains shown, PDB 2BDN heavy chain; PDB 2BDN light chain) with the stated change) VH: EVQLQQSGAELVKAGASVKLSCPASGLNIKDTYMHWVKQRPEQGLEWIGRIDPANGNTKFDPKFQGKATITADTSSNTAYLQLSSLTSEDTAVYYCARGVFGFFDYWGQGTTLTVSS VL: DIQMTQSSSSFSVSLGDRVTITCKATEDIYNRLAWYQQKPGSAPRLLISGATDLETGVPSRFSGSGSGKDYTLSITSLQTEDVATYYCQQFWSAPYTFGGGTKLEIK ; kon = 90000
